target: Matrix metalloproteinase-9 (Homo sapiens, UniProt P14780); assay: Inhibition constant for human matrix metalloprotease-9 (MMP-9)
Sequence (P14780 whole entry): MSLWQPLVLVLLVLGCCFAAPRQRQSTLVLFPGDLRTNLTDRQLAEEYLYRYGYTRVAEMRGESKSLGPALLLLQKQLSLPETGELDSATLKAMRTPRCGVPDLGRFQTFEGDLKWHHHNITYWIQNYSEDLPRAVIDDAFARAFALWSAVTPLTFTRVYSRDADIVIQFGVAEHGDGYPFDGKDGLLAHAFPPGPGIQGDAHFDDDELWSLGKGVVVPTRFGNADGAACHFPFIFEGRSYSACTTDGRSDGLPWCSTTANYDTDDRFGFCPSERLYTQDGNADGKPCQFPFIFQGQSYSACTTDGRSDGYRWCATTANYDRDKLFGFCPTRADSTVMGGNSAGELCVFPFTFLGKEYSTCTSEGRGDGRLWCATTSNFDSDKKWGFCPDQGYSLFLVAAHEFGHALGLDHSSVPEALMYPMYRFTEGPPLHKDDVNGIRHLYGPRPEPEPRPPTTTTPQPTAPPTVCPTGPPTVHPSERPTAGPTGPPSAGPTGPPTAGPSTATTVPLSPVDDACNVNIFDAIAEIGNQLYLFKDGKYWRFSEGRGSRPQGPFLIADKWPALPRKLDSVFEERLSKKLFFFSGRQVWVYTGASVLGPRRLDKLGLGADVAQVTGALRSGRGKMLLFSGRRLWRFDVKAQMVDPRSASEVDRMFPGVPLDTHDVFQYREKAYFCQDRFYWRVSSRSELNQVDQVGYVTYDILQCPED
Observable: Ki (nM)
One number for each entry, in nM.

Here's what some known entries look like.
Compound: CCOP(=O)(c1ccccc1)N1Cc2ccccc2C[C@@H]1C(=O)NO (stereo not given in full)
Endpoint unit: nM
Ki: 42.7

Compound: CCOP(=O)(c1ccc(F)cc1)N1Cc2ccccc2C[C@@H]1C(=O)NO (stereo not given in full)
Endpoint unit: nM
Ki: 51.9

Compound: CCOP(=O)(c1ccc(C)cc1)N1Cc2ccccc2C[C@@H]1C(=O)NO (stereo not given in full)
Endpoint unit: nM
Ki: 41.8

Compound: CCOP(=O)(c1ccc(OC)cc1)N1Cc2ccccc2C[C@H]1C(=O)NO (stereo not given in full)
Endpoint unit: nM
Ki: 349

API: the following record is the query input.
Returns the measured Ki for the input compound. Input: CCOP(=O)(c1ccc(OC)cc1)N1Cc2ccccc2C[C@@H]1C(=O)NO (stereo not given in full) 5.05

* * *

target: UniProt:P14780; test: Inhibition of MOCAc-Pro-Leu-Gly-Leu-A2p (Dnp)-Ala-Arg-NH2 binding to human matrix metalloprotease-9 (MMP-9); details: read-out: Log 1/Ki (converted)
Observable: Ki (nM)
Numbers only, in nM.

Compound: COc1ccc(P(=O)(OC2CCCCC2)N2Cc3ccccc3C[C@@H]2C(=O)NO)cc1 (stereo partly drawn)
Ki (nM): 6.58

Compound: CCOP(=O)(c1ccc(C)cc1)N1Cc2ccccc2C[C@@H]1C(=O)NO (stereo partly drawn)
Ki (nM): 41.8

Compound: CCOP(=O)(c1ccc(Oc2ccc(N)cc2)cc1)N1Cc2ccccc2C[C@@H]1C(=O)NO (stereo partly drawn)
Ki (nM): 0.1

Compound: COc1ccc(P(=O)(OC)N2Cc3ccccc3C[C@@H]2C(=O)NO)cc1 (stereo partly drawn)
Ki (nM): 2.03

Compound: CCOP(=O)(c1ccc(OC)cc1)N1Cc2ccccc2C[C@H]1C(=O)NO (stereo partly drawn)
Ki (nM): 349

Each compound below has a recorded value; state its Ki.
1. CCOP(=O)(c1ccc(OC)cc1)N1Cc2ccccc2C[C@@H]1C(=O)NO (stereo partly drawn)
2. CCOP(=O)(c1ccc(Oc2ccncc2)cc1)N1Cc2ccccc2C[C@@H]1C(=O)NO (stereo partly drawn)

1: 5.05; 2: 0.6

Returns the measured Ki for the input compound. Input: CCOP(=O)(CCc1ccccc1)N1Cc2ccccc2C[C@@H]1C(=O)NO (stereo partly drawn) 38.3

* * *

biological target: UniProt:P14780; test: Inhibition of MOCAc-Pro-Leu-Gly-Leu-A2p (Dnp)-Ala-Arg-NH2 binding to human matrix metalloprotease-9 (MMP-9); conditions: read-out: Log 1/Ki (converted)
Observable: log10(Ki) (log10 of the value in nM)
Answers are given as log10 of Ki in nM.

Here's what some known entries look like.
Compound: CCOCCOP(=O)(c1ccc(OC)cc1)N1Cc2ccccc2C[C@@H]1C(=O)NO (some centres undefined)
Target system: UniProt:P14780
Observable: log10(Ki)
Meas value: 0.80

Compound: CCOP(=O)(c1ccc(N)cc1)N1Cc2ccccc2C[C@@H]1C(=O)NO (some centres undefined)
Target system: UniProt:P14780
Observable: log10(Ki)
Meas value: 1.98

Compound: CCOP(=O)(c1ccc(OC)cc1)N1CCC[C@@H]1C(=O)NO (some centres undefined)
Target system: UniProt:P14780
Observable: log10(Ki)
Meas value: 2.50

Compound: CCOP(=O)(c1ccc(Oc2ccccc2)cc1)N1Cc2ccccc2C[C@@H]1C(=O)NO (some centres undefined)
Target system: UniProt:P14780
Observable: log10(Ki)
Meas value: -1.10

Compound: CCOP(=O)(c1ccccc1)N1Cc2ccccc2C[C@@H]1C(=O)NO (some centres undefined)
Target system: UniProt:P14780
Observable: log10(Ki)
Meas value: 1.63

Compound: CCOP(=O)(c1ccc(-c2ccccc2)cc1)N1Cc2ccccc2C[C@@H]1C(=O)NO (some centres undefined)
Target system: UniProt:P14780
Observable: log10(Ki)
Meas value: -0.51

Each compound below has a recorded value; state its log10(Ki).
1. CCOP(=O)(c1ccncc1)N1Cc2ccccc2C[C@@H]1C(=O)NO (some centres undefined)
2. CCOP(=O)(c1ccccc1F)N1Cc2ccccc2C[C@@H]1C(=O)NO (some centres undefined)
3. CCOP(=O)(c1cccc(F)c1)N1Cc2ccccc2C[C@@H]1C(=O)NO (some centres undefined)
4. CCOCCOc1ccc(P(=O)(OCC)N2Cc3ccccc3C[C@@H]2C(=O)NO)cc1 (some centres undefined)
5. COc1ccc(P(=O)(OCC2CCCCC2)N2Cc3ccccc3C[C@@H]2C(=O)NO)cc1 (some centres undefined)
6. CCOP(=O)(c1cccs1)N1Cc2ccccc2C[C@@H]1C(=O)NO (some centres undefined)
7. COc1ccc(P(=O)(OCCc2ccccn2)N2Cc3ccccc3C[C@@H]2C(=O)NO)cc1 (some centres undefined)

2.44
1.51
1.90
1.15
0.66
1.77
0.53

Returns the measured log10(Ki) for the input compound. Input: CCOP(=O)(c1ccc(OC)cc1)N1Cc2ccsc2C[C@@H]1C(=O)NO (some centres undefined) 0.58
